assay: Clinical symptoms of rats in metabolic model; format: in vivo, rat; settings: SD rats, dose 0.05-0.5 mg/kg per Table 6
recorded metric: Animal manifestations after tail vein drug injection

COC(=O)C(NC(=O)c1nn(CCCCCF)c2ccccc12)C(C)(C)C (stereo not shown)    hematuria
CC1(C)C(C(=O)c2cn(Cc3ccc(F)cc3)c3ccccc23)C1(C)C    hematuria

====

assay: Metabolite identification, HLM incubation and rat model combined (UHPLC-Q-Exactive Orbitrap MS); design: species or system human; rat; conditions: in vitro (HLM) and in vivo (rat) models together
recorded metric: Number of Phase II Metabolites

Reference set (5 entries):
COC(=O)C(NC(=O)c1nn(CCCCCF)c2ccccc12)C(C)(C)C (stereo not shown)    8
C=CCCCn1nc(C(=O)NC(C(=O)OC)C(C)(C)C)c2ccccc21 (stereo not shown)    2
CN1CCCCC1Cn1cc(C(=O)C2C(C)(C)C2(C)C)c2ccccc21 (stereo not shown)    5
CC(C)(C)C(NC(=O)c1nn(CC2CCCCC2)c2ccccc12)C(N)=O (stereo not shown)    7
CCOC(=O)C(NC(=O)c1nn(CCCCCF)c2ccccc12)C(C)C (stereo not shown) [5F-EMB-PICA]    10

Please indicate Number of Phase II Metabolites recorded for CCCCCn1cc(C(=O)C2C(C)(C)C2(C)C)c2ccccc21
9

Please indicate Number of Phase II Metabolites recorded for CCCCCn1cc(C(=O)c2ccc3ccccc3c2)cc1-c1ccccc1C
5

Please indicate Number of Phase II Metabolites recorded for CC1(C)C(C(=O)c2cn(Cc3ccc(F)cc3)c3ccccc23)C1(C)C
7

Please indicate Number of Phase II Metabolites recorded for CC(C)C(NC(=O)c1nn(Cc2ccc(F)cc2)c2ccccc12)C(N)=O (stereo not shown)
4

Please indicate Number of Phase II Metabolites recorded for C=CCCCn1nc(C(=O)NC(C(N)=O)C(C)(C)C)c2ccccc21 (stereo not shown)
5

Please indicate Number of Phase II Metabolites recorded for CCCCCn1cc(C(=O)NC(C(N)=O)C(C)(C)C)c2cccnc21 (stereo not shown)
12

Please indicate Number of Phase II Metabolites recorded for O=C(c1cccc2ccccc12)c1nc2ccccc2n1CCCCCF
12

Values from paper PMC12250893
